These measurements were taken from the supplement of paper PMC9732359.

Exercise: for every item that follows, state its recorded protein stability index.
Test: protein stability index of a GFP-peptide fusion (yeast GPS) (PSI 1-4); higher = more stable; sorted into four equal gates, so the index is relative within each strain
Details: ubr1∆
Answers are plain numbers.

[[record]]
sequencecontent = "VNGSPITLVEPEILRFK [RPS16A]"
reported = 3.36

[[record]]
sequencecontent = "SKSPSEWQDIIHQREQE [CSE2]"
reported = 3.2

[[record]]
sequencecontent = "FDKVEVQVRSVMDPITS [DIS3]"
reported = 3.04

[[record]]
sequencecontent = "ENEMIKPMNKGQHKNNT [SWP82]"
reported = 3.26

[[record]]
sequencecontent = "FQEGVVVAKKDFNQAKH [RPS10A]"
reported = 2.79

[[record]]
sequencecontent = "PLGVILTFVSVDEELGP [SCL1]"
reported = 2.46

[[record]]
sequencecontent = "AAPSGNYKQLTLVGGGA [RRP43]"
reported = 2.5


Exercise: Give the value of protein stability index reported for the following: NNPQVVNAITVAQQQVQ [SNF5]
Key: 1.99

###

Experiment: protein stability index of a GFP-peptide fusion (yeast GPS) (PSI 1-4); higher = more stable; sorted into four equal gates, so the index is relative within each strain
Conditions: san1∆
measurementName: protein stability index

[[record]]
sequencecontent = "ELKPVSLDNKTLDDLVT [YJL041W/NSP1]"
reported = 3.09

[[record]]
sequencecontent = "VPTVPPSQSEEQKGQMA [MED4]"
reported = 3

[[record]]
sequencecontent = "LEEVEGSCTGKFGYILC [RPB7]"
reported = 2.1


Provide protein stability index values for the following items, in order.
1. GDRQRLGEEHPLQVARC [RPT1]
2. ANIELTWAEGTFEQFKD [RPC37]
3. NTVPQVTNFNSTNEDQN [SRB5]
4. VDLLQFPWLNAIKYRPT [POP3]
5. NVDVCVMEIGKDAEYLR [PUP1]
6. KEKIKGLQDEIMKIGGI [SMC4]
7. QLQGPQWMNEMVERWAN [SOH1]
8. EMGYLIQISKLHYTPIE [RPC82]

Key:
[3.25, 3.31, 3.02, 2.36, 2.7, 3.17, 2.93, 1.95]

Hey, can you go through the list below and give me protein stability index for every item?
1. EVINKEIENATKDIFPL [RPS1A]
2. RQDGSYTYHSTNKDNKA [ARP9]
3. LGTIESAQAETEALLLE [DIS3]
4. APIPKGRVKYTKRQKHF [POP1]
5. KNLKPQEQLKNVKNDVS [YIL149C/MLP2]

Key:
1. 2.9
2. 2.88
3. 3.18
4. 2.2
5. 2.51

Please give protein stability index, item by item, for the list that follows.
1. QAQAQAQAAQAAQAQAQ [GAL11]
2. TAAQVANVELTPSNIRS [RPC34]
3. LTKAQKYLDQVLDHQRA [RPL17B]
4. SLPFLLRHMPLASIPDI [SSN2]
5. FFDGSASSTPIPVLGKP [YOR098C/NUP1]

Key:
2.93
2.8
3.03
1.5
2.72

Quick batch: protein stability index for everything below.
1. VAAASKILSNLVYQYKG [PRE2]
2. LDNLTEDPNSAAFDEVE [DIS3]
3. QQLLPAPQLFPYGSFHQ [DSN1]
4. LKTVIILSSLYLLSIWV [CYT1]

Key:
2.54
3.22
2.72
1.24

###

Test: protein stability index of a GFP-peptide fusion (yeast GPS) (PSI 1-4); higher = more stable; sorted into four equal gates, so the index is relative within each strain
Settings: ubr1∆
Values of protein stability index greater than or equal to 2 map to 1; values below map to 0.

Exercise: Could you verify whether the entry MSANGFAADGDALVKRF [PRE7] shows protein stability index of no less than 2?
Key: 1

Exercise: Given APVEVQEDFEVVEEFTP [RPS5] , state whether its protein stability index is at least 2.
Key: 1

Exercise: Decide: is the reported value of protein stability index for VDTGLQPQHPHYVSTSK [YLR018C/POM34] equal to or greater than 2?
Key: 1

Exercise: Please tell me: is the sequence LQKEKELHKEGTISKLE [SMC2] at or over 2 in terms of protein stability index?
Key: 1

Exercise: // inclusive: protein stability index at least 2? input: LSGKFSTIPTRENGKGG [ROX3]
Key: 1

Exercise: Quick check, protein stability index >= 2? MAQTATQQQPGAPGANA [SRP54]
Key: 1

Exercise: Evaluate IEELDNPMVPSSVNEDT [PRP8] : protein stability index at minimum 2?
Key: 1

Exercise: Dear colleague, could you confirm whether TERVVEIGPSPTLAGMA [FAS2] has protein stability index at or above 2?
Key: 1

Exercise: In plain terms: is recorded protein stability index at least 2 for ALLNFVLPKIFNSVKSF [SNF2] ?
Key: 0

Exercise: Given the entry LNATTAMDLAQMLIQGV [BRR2] , answer whether its protein stability index meets or surpasses 2.
Key: 0

Exercise: Please check the record YLIDHIKVDGAVGNLGN [RPL22B] and state if its protein stability index is at or above 2.
Key: 1

Exercise: Given DLMDDMSDISDLDDLGF [RPN3] , state whether its protein stability index is at least 2.
Key: 0

Exercise: Could you tell me if the measured protein stability index of DFDDSTAQEINFKMLVL [IRR1] reaches 2 or more?
Key: 1

Exercise: Dear colleague, could you confirm whether SYSGYDIEDALVLNKSS [RET1] has protein stability index at or above 2?
Key: 1

Exercise: Hi team, for AADNLGSYGSLLRFNGV [PRE4] , is the recorded protein stability index at or above 2?
Key: 1

###

Experiment: protein stability index of a GFP-peptide fusion (yeast GPS) (PSI 1-4); higher = more stable; sorted into four equal gates, so the index is relative within each strain
Settings: ubr1∆
measurementName: protein stability index

Some sequences with recorded protein stability index:
[[record]]
sequencecontent = "IKESSKKIKGKSIQDIV [SRP21]"
measurementname = "protein stability index"
reported = 3.14

[[record]]
sequencecontent = "AVRLILPGELAKHAVSE [HTB1]"
measurementname = "protein stability index"
reported = 3.28

[[record]]
sequencecontent = "RMRFPPFDDDEPPLSYE [PRP8]"
measurementname = "protein stability index"
reported = 2.61


Give one value of protein stability index per listed sequence.
1. TPLTENILIASLMDTLI [YCG1]
2. SLLKTKLKQQSSTDIPS [RRI1]
3. DDFLSKKRKAGRPRGRP [SNF2]
4. SWSSSAAVIMRCKIYFF [PCI8]
5. QRMHAIHEIDERLAKVN [NNF1]
6. LTSNLSNYSRTMTISHL [YJL039C/NUP192]
7. EAQANLLTAKHGMTLRE [RPO21]

Key:
1. 2.35
2. 2.44
3. 2.89
4. 1.28
5. 2.14
6. 2.48
7. 2.8

###

Provide the reported protein stability index of each item.
Experiment: protein stability index of a GFP-peptide fusion (yeast GPS) (PSI 1-4); higher = more stable; sorted into four equal gates, so the index is relative within each strain
Settings: doa10∆
Numbers only.

Record excerpt, results attached:
[[record]]
sequencecontent = "EMGYLIQISKLHYTPIE [RPC82]"
reported = 1.51

[[record]]
sequencecontent = "MDKKILLNINGSRKVAG [SMX2]"
reported = 1.57

[[record]]
sequencecontent = "TASDQLFGMCESLYEPN [PUP3]"
reported = 2.06

[[record]]
sequencecontent = "KLTSEETVFNYRLMIKR [GRR1]"
reported = 3.02

[[record]]
sequencecontent = "QESLVKLFTTNELMRWP [RPN5]"
reported = 2.96


Provide reported protein stability index for each item, in the same order as listed.
1. KPAFSFGINTNTTKTAD [YLR335W/NUP2]
2. QRKTNGASNGDDSNGGN [BRN1]
3. DQLEDLREHFKNTEEGK [QCR6]

Key:
1. 2.98
2. 3.12
3. 2.75

###

Assay: protein stability index of a GFP-peptide fusion (yeast GPS) (PSI 1-4); higher = more stable; sorted into four equal gates, so the index is relative within each strain
Conditions: doa10∆
measurementName: protein stability index
Give bare numbers.

Here is how some sequences turned out for protein stability index.
[[record]]
sequencecontent = "QQQLQQNSKEKNGLGLN [MED2]"
reported = 2.5

[[record]]
sequencecontent = "YNIELPLPPRIDPSVTM [RPT1]"
reported = 2.44

[[record]]
sequencecontent = "PHIQKMLSILEIFKKGY [POP6]"
reported = 2.42

[[record]]
sequencecontent = "PTDSSKILQKRSISKEL [SIR3]"
reported = 2.76

[[record]]
sequencecontent = "KLQSQSLHTKNVFGTLQ [YLR018C/POM34]"
reported = 2.87


Hi team, please reply with protein stability index for each item in this list.
1. VVNQPTGKIVDVVGTLS [FAS1]
2. SKTWETYEMRIHKRYID [RPS20]
3. KSQEQREHSLQLFRTNK [PRP28]

Key:
1: 3.1; 2: 2.45; 3: 3

Required: protein stability index, one value per sequence below.
1. NDIAGQPQALQKSGRPV [RPO21]
2. QNFENDFSLRYISNLLY [REC8]
3. DYIKDEQRHLKRELKRA [RPT3]
4. NILFSLWKLLSTVKVSD [YLR018C/POM34]

Key:
2.93
2.19
2.25
1.76

Quick batch: protein stability index for everything below.
1. DIFSNLSSDDLLGKESF [YCS4]
2. YLVEAPWNDDYPFLLSF [YML103C/NUP188]

Key:
2.87
1.4
